Biological target: T1, caspase-7 (UniProt P55210 24-198; P55210 207-303, limits assumed)
T1 sequence (looked up) 1: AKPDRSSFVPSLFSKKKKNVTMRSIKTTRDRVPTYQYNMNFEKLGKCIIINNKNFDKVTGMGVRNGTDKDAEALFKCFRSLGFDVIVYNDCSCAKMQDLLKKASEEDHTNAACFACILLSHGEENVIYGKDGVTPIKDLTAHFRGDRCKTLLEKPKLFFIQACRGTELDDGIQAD
T1 sequence (looked up) 2: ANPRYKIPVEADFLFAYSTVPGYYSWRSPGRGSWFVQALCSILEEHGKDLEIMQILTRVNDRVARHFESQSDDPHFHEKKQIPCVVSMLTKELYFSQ
Assay: Ki printed in running text; no assay described
PROPERTY LABEL: Ki (nM)
Answers are plain numbers, in nM.

-- ask Check the records and state Ki for Ac-DEVD-aldehyde [Ac-DEVD-CHO, N-(N-Ac-Asp-Glu-Val)-3-amino-4-oxobutanoic acid]
-- reply 1
